The reported numbers originate from PubChem BioAssay.

Tested on: Inhibin beta A chain (activin A)
Test: INHBA (activin A) binders on microarrays, primary screen, biochemical, small-molecule microarray, 635 nm fluorescence scan (AID 1107);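 further: mouse activin A protein probed at 4.33 µg/mL on printed slides; score merges bound-protein fluorescence near 667 nm with spot signal-to-noise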
Settings: small-molecule microarray binding, higher = more signal
property: composite z-score

| compound | composite z-score |
| --- | --- |
| C[C@@H](c1ccccc1)N1C(=O)[C@H]2[C@H]3[C@H](O)C=CC(=O)[C@@H]3CC[C@H]2C1=O | 0.25 |
| CCN1C(=O)[C@H]2[C@H]3[C@H](O)[C@H](O)CC(=NOCc4ccccc4)[C@@H]3CC[C@H]2C1=O | 0.383 |

# batch: return composite z-score for each of the 4 compounds below
1. CC[C@@H](c1ccccc1)n1c(=O)n2n(c1=O)[C@H]1[C@H](O)[C@@H]3O[C@@H]3C(=NOCC(C)C)[C@H]1CC2
2. O=C1NC(=O)C2C1C=CC(C(O)Cc1ccccc1)N2Nc1ccccn1 (stereo not drawn)
3. C=CC[C@@H]1C=C[C@H](ON=C(C)CCN2CCc3nc(CC)c(CC)cc3C2)[C@@H](CO)O1
4. C[C@H]1CC[C@@H](C(=O)O)N[C@@H]1c1ccc(C#CCN(C)C)cc1

[-0.0597, 0.97, 1.8, 0.222]

# batch: return composite z-score for each of the 2 compounds below
1. CCN(CC)c1ccc(N2CC=CC34O[C@@H]5/C=C\CCC(C)OC(=O)C5[C@H]3C(=O)N(CCCO)[C@@H]4C2=O)cc1 (stereo partly drawn)
2. CC(C)(C)N1CC=CC23O[C@@H]4C=CCCOC(=O)C4[C@H]2C(=O)N(CCCCCO)[C@@H]3C1=O (stereo partly drawn)

1: 1.01; 2: 0.773

----------
Target: Homeobox protein Hox-A13 (Mus musculus) (UniProt Q62424)
Sequence (Q62424 whole entry, looked up): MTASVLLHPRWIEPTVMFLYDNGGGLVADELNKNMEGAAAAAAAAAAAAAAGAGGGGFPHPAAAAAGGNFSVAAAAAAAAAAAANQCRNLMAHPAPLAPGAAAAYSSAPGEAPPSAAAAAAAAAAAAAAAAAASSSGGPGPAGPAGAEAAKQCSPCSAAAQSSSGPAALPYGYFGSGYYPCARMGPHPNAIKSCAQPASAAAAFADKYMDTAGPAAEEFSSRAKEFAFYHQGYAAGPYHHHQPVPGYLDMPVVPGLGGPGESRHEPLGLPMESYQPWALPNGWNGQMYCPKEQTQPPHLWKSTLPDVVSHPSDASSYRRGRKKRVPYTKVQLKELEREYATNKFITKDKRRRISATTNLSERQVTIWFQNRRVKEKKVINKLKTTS
Assay: inhibitors of HoxA13-DNA binding, primary screen, biochemical, fluorescence polarization, labeled oligonucleotide (AID 1185)
Conditions: 15 min, higher = more signal, called active from +8 up or from −8 down
property: z-score
Answers are plain numbers.

| compound | recorded number |
| --- | --- |
| CCOC(=O)[C@H](CC(C)C)NC(=O)CCC1CC(OC(=O)NCc2cccc3ccccc23)CC2(CCCC(COC(=O)NCCc3ccccc3OC)O2)O1 (some centres undefined) | -3.13 |

# batch: return z-score for each of the 7 compounds below
1. C[C@H](c1ccccc1)N1C(=O)[C@H]2[C@H]3[C@H](O)[C@H](O)CC(=O)[C@@H]3CC[C@H]2C1=O
2. COc1ccc(-c2nc3c(c4c2C[C@H](C)OC4)CN(CCC(C)C)CC3)cc1
3. CCOc1ccc(N2C(=O)/C(=C/C=C/c3ccccc3OC)S(=O)(=O)C2c2cccc([N+](=O)[O-])c2)cc1 (centres undefined)
4. CCOC(=O)C1=CCC(c2cc3ccccc3[nH]2)NC1 (centres undefined)
5. CCc1cccc(NC(=O)O[C@H]2[C@H](OC(=O)Nc3ccc4c(c3)OCO4)[C@@H](OC(=O)Nc3ccc4c(c3)OCO4)[C@@H](OC)O[C@@H]2CO)c1
6. CO[C@@H]1COC(=O)CC=C[C@@H](C)[C@H](OC)COC(=O)[C@H](COCc2ccccc2)NC(=O)CC=C[C@H]1C
7. C[C@@H](c1ccccc1)N1C(=O)[C@H]2[C@H]3[C@H](O)C=CC(=O)[C@@H]3CC[C@H]2C1=O

[-1.84, -5.51, 1.37, -1.51, -6.22, -1.64, -0.308]
